Assay: Kinetic solubility
Format: physicochemical
Measured solubility kinetic of individual entries
Record the value in µM, omitting the unit from your answer.

Solved cases below.
{"columns": ["Compound", "Assay readout", "Result number"],
 "data": [
  ["FC(F)(F)c1cc2c(N[C@H]3c4ccccc4CC[C@@H]3N3CCCCC3)ncnc2[nH]1 (single isomer, unassigned) [EP-0038392]", "solubility kinetic", 187],
  ["c1ccc2c(c1)CC[C@H](N1CCOCC1)[C@H]2Nc1ncnc2[nH]c(C3CC3)cc12 (racemic) [EP-0039677]", "solubility kinetic", 1.56]
]}

Next up:
Prompt: Query (compound): FC(F)(F)c1cc2c(N[C@@H]3c4ccccc4CC[C@H]3N3CCOCC3)ncnc2[nH]1 (single isomer, unassigned) [EP-0038099] ; field requested: solubility kinetic
Completion: 14.1
